Biological target: human TAS2R4 (Homo sapiens, UniProt Q9NYW5)
Construct: expressed in transfected cells; host or cells: HEK293T-Gα16gust44
Sequence (Q9NYW5 1-299): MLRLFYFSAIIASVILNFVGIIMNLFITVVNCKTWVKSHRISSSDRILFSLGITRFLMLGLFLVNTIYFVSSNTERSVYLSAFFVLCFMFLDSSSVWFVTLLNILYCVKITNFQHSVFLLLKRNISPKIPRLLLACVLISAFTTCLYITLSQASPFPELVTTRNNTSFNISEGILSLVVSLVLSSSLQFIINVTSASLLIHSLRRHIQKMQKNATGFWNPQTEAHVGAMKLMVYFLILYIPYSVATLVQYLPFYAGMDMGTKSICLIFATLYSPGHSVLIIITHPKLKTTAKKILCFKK
Test: Calcium imaging assay (FLIPR), HEK293T-Gα16gust44 cells transfected with human TAS2R4; also: test concentration or dose not given here
Type: cell-based
Conditions: Time (s) 94.781 (TCA, TLCA: 94.782)
// reported RLU, fluorescence trace per item

Here's what some known entries look like.
QUERY: State its RLU, fluorescence trace: C[C@H](CCC(=O)O)[C@H]1CC[C@H]2[C@@H]3CC[C@@H]4C[C@H](O)CC[C@]4(C)[C@H]3C[C@H](O)[C@]12C
RESULT: 360.114 RLU

QUERY: State its RLU, fluorescence trace: C[C@H](CCC(=O)NCCS(=O)(=O)O)[C@H]1CC[C@H]2[C@@H]3[C@H](O)C[C@@H]4C[C@H](O)CC[C@]4(C)[C@H]3C[C@H](O)[C@]12C
RESULT: 665.026 RLU

QUERY: State its RLU, fluorescence trace: C[C@H](CCC(=O)O)[C@H]1CC[C@H]2[C@@H]3[C@H](O)C[C@@H]4C[C@H](O)CC[C@]4(C)[C@H]3C[C@H](O)[C@]12C
RESULT: 623.143 RLU

QUERY: State its RLU, fluorescence trace: C[C@H](CCC(=O)NCC(=O)O)[C@H]1CC[C@H]2[C@@H]3[C@H](O)C[C@@H]4C[C@H](O)CC[C@]4(C)[C@H]3C[C@H](O)[C@]12C
RESULT: 703.281 RLU

QUERY: State its RLU, fluorescence trace: C[C@H](CCC(=O)O)[C@H]1CC[C@H]2[C@@H]3[C@@H](O)C[C@@H]4C[C@H](O)CC[C@]4(C)[C@H]3CC[C@]12C
RESULT: 299.044 RLU

Others:
QUERY: State its RLU, fluorescence trace: C[C@H](CCC(=O)NCCS(=O)(=O)O)[C@H]1CC[C@H]2[C@@H]3CC[C@@H]4C[C@H](O)CC[C@]4(C)[C@H]3CC[C@]12C
RESULT: 300.252 RLU

Values compiled from paper PMC10247784.
